Source: ChEMBL document CHEMBL1140218

Measured Survival of individual entries
Tested on: Plasmodium yoelii nigeriensis
assay_name: Antimalarial activity as survival time against multidrug-resistant Plasmodium yoelii nigeriensis in Swiss mice (Mus musculus) at 96 mg/kg peroral dose for 4 days
Type: functional
condition_label: route oral
Express it in days; write the number only.

| compound | experimental_system | unit_text | recorded_measurement |
| --- | --- | --- | --- |
| C=C(c1ccc(Oc2cccc(C(=C)C3COC4(CCCCC4)OO3)c2)cc1)C1COC2(CCCCC2)OO1 (configuration not stated) | Plasmodium yoelii nigeriensis | days | 10 |
| C=C(c1ccc(OCCOc2ccc(C(=C)C3COC4(CCCCC4)OO3)cc2)cc1)C1COC2(CCCCC2)OO1 (configuration not stated) | Plasmodium yoelii nigeriensis | days | 10.6 |
| C=C(c1ccc(Oc2cc(Oc3ccc(C(=C)C4COC5(OO4)C4CC6CC(C4)CC5C6)cc3)cc(Oc3ccc(C(=C)C4COC5(OO4)C4CC6CC(C4)CC5C6)cc3)c2)cc1)C1COC2(OO1)C1CC3CC(C1)CC2C3 (configuration not stated) | Plasmodium yoelii nigeriensis | days | 7.4 |
| C=C(c1ccc(OCCOc2ccc(C(=C)C3COC4(OO3)C3CC5CC(C3)CC4C5)cc2)cc1)C1COC2(OO1)C1CC3CC(C1)CC2C3 (configuration not stated) | Plasmodium yoelii nigeriensis | days | 7.6 |

Turning now to a further compound:
Notebook: pull reported Survival for Plasmodium yoelii nigeriensis, entry C=C(c1ccc(Oc2ccc(Oc3ccc(C(=C)C4COC5(OO4)C4CC6CC(C4)CC5C6)cc3)cc2)cc1)C1COC2(OO1)C1CC3CC(C1)CC2C3 (configuration not stated) 9
